# EC50 values compiled below
Target: CFTR-mediated chloride transport (Homo sapiens, UniProt P13569)
Assay: Corrector Assay A - membrane potential dye assay (enteroid cells)
Conditions: read-out: Corrector Assay A EC50; human intestinal enteroid cells, 18-24 h incubation; acute 10 μM forskolin + 300 nM ivacaftor

CC(C)(C)c1ccc2c(n1)N1C[C@@H](CCC(c3ccc(CCN)cn3)Nc3cccc(n3)S(=O)(=O)NC2=O)CC1(C)C (stereo partly drawn) [Compound 114] : < 1 µM

Return EC50 for the following compound: CC(C)(C)c1ccc2c(n1)N1C[C@@H](CCC(c3cc(N)ccn3)Nc3cccc(n3)S(=O)(=O)NC2=O)CC1(C)C (single isomer, unassigned) [Compound 48] 1 to 3 µM

Return EC50 for the following compound: CC(C)(C)c1ccc2c(n1)N1C[C@@H](CC[C@@H](c3ncccc3Br)Nc3cccc(n3)S(=O)(=O)NC2=O)CC1(C)C (single isomer, unassigned) [Compound 53] < 1 µM
